# ASSAY SYSTEM: triosephosphate isomerase (rabbit muscle TIM) (Oryctolagus cuniculus, UniProt P00939)
# Construct: gene TPI1; native enzyme from rabbit muscle, commercial reagent (Sigma-Aldrich); homodimer; 1R2R is the rabbit TIM structure used for docking
# Sequence (P00939 2-249): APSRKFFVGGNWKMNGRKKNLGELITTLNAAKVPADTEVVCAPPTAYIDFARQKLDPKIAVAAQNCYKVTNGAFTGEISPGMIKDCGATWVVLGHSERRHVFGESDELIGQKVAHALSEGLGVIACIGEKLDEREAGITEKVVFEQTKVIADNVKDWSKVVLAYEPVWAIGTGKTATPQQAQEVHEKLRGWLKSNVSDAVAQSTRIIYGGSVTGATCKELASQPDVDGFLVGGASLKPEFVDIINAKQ
# PROTOCOL: coupled assay with alpha-glycerophosphate dehydrogenase, NADH at […] nm
# Type: biochemical
# ASSAY SETUP: read-out: K i
READOUT TYPE: pKi
Numbers only, as −log10 of the molar value.

Value of pKi reported for the molecule Nc1nc2c(c(=O)[nH]1)C(c1ccccc1)C1=C(N2)c2ccccc2C1=O (racemic) [compound 1] is 4.36
